Source listed as ChEMBL document CHEMBL2396640.

inhibition values by entry
Tested on: Escherichia coli
PROTOCOL SUMMARY: Inhibition of Escherichia coli DXR using DOXP as substrate assessed as conversion of NADPH to NADP at 250 uM preincubated for 5 mins measured after 10 mins relative to control
Write the value in % as a bare number.

Query: Need inhibition of CCOP(=O)(CC(=O)Nc1cccc(C#N)c1)OCC , thanks.
Reply: 11.9

Query: Need inhibition of CCOP(=O)(CCC(=O)Nc1cccc(OC)c1)OCC , thanks.
Reply: 14.1

Query: Need inhibition of CCOP(=O)(CC(=O)Nc1cccc(O)c1)OCC , thanks.
Reply: 24.4

Query: Need inhibition of O=C(CCCP(=O)(O)O)Nc1cccc(O)c1 , thanks.
Reply: 0.7

Query: Need inhibition of N#Cc1cccc(NC(=O)CP(=O)(O)O)c1 , thanks.
Reply: 20

Query: Need inhibition of O=C(CP(=O)(O)O)Nc1cccc(O)c1 , thanks.
Reply: 43.9

Query: Need inhibition of O=C(CCP(=O)(O)O)Nc1cccc(O)c1 , thanks.
Reply: 49.2

###

Tested on: Escherichia coli
PROTOCOL SUMMARY: Inhibition of Escherichia coli DXR using DOXP as substrate assessed as conversion of NADPH to NADP at 250 uM preincubated for 5 mins relative to control
MEASURE NAME: inhibition (%)
Write the value in % as a bare number.

Query: Need inhibition of O=C(CP(=O)(O)O)Nc1cccc(O)c1 , thanks.
Reply: 34.4

New cases:
Query: Need inhibition of CCOP(=O)(CCC(=O)Nc1cccc(CO)c1)OCC , thanks.
Reply: 17.1

Query: Need inhibition of CCOP(=O)(CCC(=O)Nc1cccc(OC)c1)OCC , thanks.
Reply: 23.3

Query: Need inhibition of O=C(CP(=O)(O)O)Nc1cccc(Br)c1 , thanks.
Reply: 22.3

Query: Need inhibition of O=C(CCP(=O)(O)O)Nc1cccc(O)c1 , thanks.
Reply: 23.7

Query: Need inhibition of COc1cccc(NC(=O)CCP(=O)(O)O)c1 , thanks.
Reply: 8.7

Query: Need inhibition of CCOP(=O)(CC(=O)Nc1cccc(CO)c1)OCC , thanks.
Reply: 40.4

Query: Need inhibition of COc1cccc(NC(=O)CP(=O)(O)O)c1 , thanks.
Reply: 31.9

Query: Need inhibition of CCOP(=O)(CCC(=O)Nc1cccc(O)c1)OCC , thanks.
Reply: 23.1

Query: Need inhibition of CCOP(=O)(CC(=O)Nc1cccc(OC)c1)OCC , thanks.
Reply: 11

Query: Need inhibition of N#Cc1cccc(NC(=O)CP(=O)(O)O)c1 , thanks.
Reply: 8.2

Query: Need inhibition of CCOP(=O)(CC(=O)Nc1cccc(O)c1)OCC , thanks.
Reply: 44.6

Query: Need inhibition of CCOP(=O)(CC(=O)Nc1cccc(Br)c1)OCC , thanks.
Reply: 16.3

Query: Need inhibition of O=C(CCP(=O)(O)O)Nc1cccc(CO)c1 , thanks.
Reply: 16

Query: Need inhibition of CCOP(=O)(CC(=O)Nc1cccc(C#N)c1)OCC , thanks.
Reply: 21.9

###

Test system: Plasmodium falciparum
PROTOCOL SUMMARY: Inhibition of Plasmodium falciparum DXR using DOXP as substrate assessed as conversion of NADPH to NADP at 250 uM preincubated for 5 mins relative to control
MEASURE NAME: inhibition (%)
Write the value in % as a bare number.

Query: Need inhibition of O=C(CCP(=O)(O)O)Nc1cccc(CO)c1 , thanks.
Reply: 10.9

Query: Need inhibition of O=C(CCP(=O)(O)O)Nc1cccc(O)c1 , thanks.
Reply: 1.1

Query: Need inhibition of CCOP(=O)(CC(=O)Nc1cccc(CO)c1)OCC , thanks.
Reply: 40.7

Query: Need inhibition of CCOP(=O)(CC(=O)Nc1cccc(O)c1)OCC , thanks.
Reply: 12

Query: Need inhibition of COc1cccc(NC(=O)CP(=O)(O)O)c1 , thanks.
Reply: 40.8

Query: Need inhibition of CCOP(=O)(CC(=O)Nc1cccc(C#N)c1)OCC , thanks.
Reply: 4.8

Query: Need inhibition of O=C(CP(=O)(O)O)Nc1cccc(Br)c1 , thanks.
Reply: 42

Continue with the molecule presented below.
Query: Need inhibition of O=C(CP(=O)(O)O)Nc1cccc(O)c1 , thanks.
Reply: 45.2

###

Test system: Escherichia coli
PROTOCOL SUMMARY: Inhibition of Escherichia coli DXR using DOXP as substrate assessed as conversion of NADPH to NADP at 500 uM preincubated for 5 mins
Label rule, in plain words: inhibition of 7% and up is rule met, under 7% is rule not met.

Answered cases to consult:
Query: Hi, just wondering whether O=C(CCP(=O)(O)O)Nc1ccon1 shows inhibition of 7% or higher.
Reply: rule not met

Query: Hi, just wondering whether CCOP(=O)(CCC(=O)NCc1ccco1)OCC shows inhibition of 7% or higher.
Reply: rule not met

Query: Hi, just wondering whether CCOP(=O)(CC(=O)NCc1ccco1)OCC shows inhibition of 7% or higher.
Reply: rule met

Query: Hi, just wondering whether O=C(CCP(=O)(O)O)Nc1nccs1 shows inhibition of 7% or higher.
Reply: rule not met

New cases:
Query: Hi, just wondering whether CCOP(=O)(CC(=O)Nc1nc(C)c(C(C)=O)s1)OCC shows inhibition of 7% or higher.
Reply: rule met

Query: Hi, just wondering whether O=C(CP(=O)(O)O)Nc1nccs1 shows inhibition of 7% or higher.
Reply: rule met

Query: Hi, just wondering whether CCOP(=O)(CC(=O)Nc1ccon1)OCC shows inhibition of 7% or higher.
Reply: rule met

###

Test system: Escherichia coli
PROTOCOL SUMMARY: Inhibition of Escherichia coli DXR using DOXP as substrate assessed as conversion of NADPH to NADP at 250 uM preincubated for 5 mins measured after 10 mins relative to control
Label rule, in plain words: inhibition of 20% and up is t, under 20% is f.

Query: Hi, just wondering whether CCOP(=O)(CCC(=O)Nc1cccc(O)c1)OCC shows inhibition of 20% or higher.
Reply: t

New cases:
Query: Hi, just wondering whether CCOP(=O)(CCC(=O)Nc1cccc(CO)c1)OCC shows inhibition of 20% or higher.
Reply: f

Query: Hi, just wondering whether CCOP(=O)(CCCC(=O)Nc1cccc(O)c1)OCC shows inhibition of 20% or higher.
Reply: f

Query: Hi, just wondering whether O=C(CCP(=O)(O)O)Nc1cccc(CO)c1 shows inhibition of 20% or higher.
Reply: t

###

Test system: Escherichia coli
PROTOCOL SUMMARY: Inhibition of Escherichia coli DXR using DOXP as substrate assessed as conversion of NADPH to NADP at 250 uM preincubated for 5 mins measured after 10 mins relative to control
MEASURE NAME: inhibition (%)
Write the value in % as a bare number.

The examples below pair each entry with its known result.
Query: Need inhibition of CCOP(=O)(CC(=O)Nc1cccc(Br)c1)OCC , thanks.
Reply: 21.4

Query: Need inhibition of COc1cccc(NC(=O)CP(=O)(O)O)c1 , thanks.
Reply: 17.8

Continue with the compound presented below.
Query: Need inhibition of O=C(CP(=O)(O)O)Nc1cccc(Br)c1 , thanks.
Reply: 26.8
